target: PSMA (Homo sapiens)
Sequence (Q04609 whole entry): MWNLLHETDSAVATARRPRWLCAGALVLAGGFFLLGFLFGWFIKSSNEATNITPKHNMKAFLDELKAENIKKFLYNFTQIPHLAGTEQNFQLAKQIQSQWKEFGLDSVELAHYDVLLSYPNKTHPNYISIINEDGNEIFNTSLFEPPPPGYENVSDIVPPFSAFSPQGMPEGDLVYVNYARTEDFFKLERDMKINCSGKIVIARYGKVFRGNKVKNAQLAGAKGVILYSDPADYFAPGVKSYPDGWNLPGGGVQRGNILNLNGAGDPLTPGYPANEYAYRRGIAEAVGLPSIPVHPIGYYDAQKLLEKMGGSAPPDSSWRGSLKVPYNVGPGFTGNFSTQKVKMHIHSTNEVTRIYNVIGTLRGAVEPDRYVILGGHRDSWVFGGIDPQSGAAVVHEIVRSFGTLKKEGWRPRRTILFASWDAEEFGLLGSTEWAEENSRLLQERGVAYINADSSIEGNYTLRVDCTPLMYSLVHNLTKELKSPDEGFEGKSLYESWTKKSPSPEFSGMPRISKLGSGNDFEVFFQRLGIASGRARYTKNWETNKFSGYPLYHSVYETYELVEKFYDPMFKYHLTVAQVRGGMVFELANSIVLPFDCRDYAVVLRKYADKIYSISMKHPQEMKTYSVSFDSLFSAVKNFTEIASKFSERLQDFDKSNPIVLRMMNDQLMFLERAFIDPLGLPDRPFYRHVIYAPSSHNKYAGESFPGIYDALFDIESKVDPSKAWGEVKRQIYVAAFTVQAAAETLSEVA

# compound, subject.of.test, IC50
rows = [
    ("O=C(O)CC[C@H](NC(=O)N[C@@H](CCC(=O)NCCc1ccc(I)cc1)C(=O)O)C(=O)O [HS-549]", "PSMA (Homo sapiens)", "0.43 nM"),
]

====

target: UniProt:Q04609; assay: PSMA inhibition assay; format: biochemical
pKi: −log10 of the molar value.
reported.metric: pKi

# compound.smiles, reported.metric, val
data = [
    ("O=C(O)CC[C@H](NC(=O)N[C@@H](CCC(=O)NCCc1ccc(I)cc1)C(=O)O)C(=O)O", "pKi", 10.05),
]
